testSystem: IFN-αH2 (human, UniProt P01570 24-189)
experimentSummary: cell-based or functional assay
Please go through the items and note down their IC50, ISRE assay.
Please respond with the number in nM and leave the unit unwritten.

Asked: In one line, give reported IC50, ISRE assay of the entry IFWM3410 (antibody, IgG1, V domains shown, mAb; IgG1/kappa said of the parent and of selected mAbs; also called IFWB3145) VH: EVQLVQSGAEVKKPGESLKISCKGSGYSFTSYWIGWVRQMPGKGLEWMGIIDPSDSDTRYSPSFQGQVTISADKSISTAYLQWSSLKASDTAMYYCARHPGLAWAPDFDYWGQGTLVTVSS VL: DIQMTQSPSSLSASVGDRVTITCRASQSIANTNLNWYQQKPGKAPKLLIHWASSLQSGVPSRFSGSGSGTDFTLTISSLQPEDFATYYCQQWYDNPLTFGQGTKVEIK .
Given back: 0.033

Asked: In one line, give reported IC50, ISRE assay of the entry IFWM3405 (antibody, IgG1, V domains shown, mAb; IgG1/kappa said of the parent and of selected mAbs; also called IFWB3140) VH: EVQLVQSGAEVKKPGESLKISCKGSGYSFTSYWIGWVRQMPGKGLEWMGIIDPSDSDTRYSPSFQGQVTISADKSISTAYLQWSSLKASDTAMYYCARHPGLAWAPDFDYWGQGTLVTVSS VL: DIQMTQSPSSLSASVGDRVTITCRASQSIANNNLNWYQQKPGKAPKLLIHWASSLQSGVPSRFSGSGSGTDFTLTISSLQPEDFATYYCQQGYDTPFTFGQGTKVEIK .
Given back: 0.016
